- tested.target: h-GABAA α2β2γ1 (Homo sapiens, UniProt P47869+Q8N1C3)
- Sequence (P47869 29-451): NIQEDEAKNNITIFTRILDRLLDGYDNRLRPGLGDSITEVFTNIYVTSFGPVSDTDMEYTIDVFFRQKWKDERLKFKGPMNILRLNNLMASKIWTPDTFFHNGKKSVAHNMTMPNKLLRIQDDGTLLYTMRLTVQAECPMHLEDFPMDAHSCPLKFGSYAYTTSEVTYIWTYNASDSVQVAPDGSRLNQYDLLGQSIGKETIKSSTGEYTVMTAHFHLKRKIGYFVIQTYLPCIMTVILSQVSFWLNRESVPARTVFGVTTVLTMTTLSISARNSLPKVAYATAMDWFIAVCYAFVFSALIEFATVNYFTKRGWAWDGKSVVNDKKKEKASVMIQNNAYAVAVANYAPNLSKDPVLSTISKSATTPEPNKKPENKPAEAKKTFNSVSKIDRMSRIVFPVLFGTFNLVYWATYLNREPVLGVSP
- Sequence (P47870 25-512 partner limits assumed): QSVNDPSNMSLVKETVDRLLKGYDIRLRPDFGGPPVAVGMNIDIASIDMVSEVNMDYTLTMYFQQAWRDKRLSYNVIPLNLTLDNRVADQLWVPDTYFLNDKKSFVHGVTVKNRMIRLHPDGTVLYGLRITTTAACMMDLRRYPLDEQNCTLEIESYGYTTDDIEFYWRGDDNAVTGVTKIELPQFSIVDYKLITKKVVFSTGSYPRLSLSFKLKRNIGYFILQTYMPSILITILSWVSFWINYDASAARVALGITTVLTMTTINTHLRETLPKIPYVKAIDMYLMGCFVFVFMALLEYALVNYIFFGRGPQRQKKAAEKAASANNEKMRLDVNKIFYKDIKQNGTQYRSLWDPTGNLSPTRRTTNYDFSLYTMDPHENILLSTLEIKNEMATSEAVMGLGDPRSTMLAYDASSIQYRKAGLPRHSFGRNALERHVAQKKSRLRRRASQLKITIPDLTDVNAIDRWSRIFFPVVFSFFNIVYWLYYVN
- Sequence (Q8N1C3 36-465): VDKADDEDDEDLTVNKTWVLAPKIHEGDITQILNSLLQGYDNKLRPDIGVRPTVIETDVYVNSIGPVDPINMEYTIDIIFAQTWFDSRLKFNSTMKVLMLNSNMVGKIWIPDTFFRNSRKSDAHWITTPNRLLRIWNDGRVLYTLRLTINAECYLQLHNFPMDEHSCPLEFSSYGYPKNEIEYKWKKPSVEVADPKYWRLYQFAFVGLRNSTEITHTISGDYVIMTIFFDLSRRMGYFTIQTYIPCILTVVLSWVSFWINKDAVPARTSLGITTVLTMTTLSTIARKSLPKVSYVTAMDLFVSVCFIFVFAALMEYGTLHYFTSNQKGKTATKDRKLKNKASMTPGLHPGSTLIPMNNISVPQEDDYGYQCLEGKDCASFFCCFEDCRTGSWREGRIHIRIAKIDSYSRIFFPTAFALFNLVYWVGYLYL
- test.summary: Two-electrode voltage clamp electrophysiology in Xenopus oocytes, modulation of GABA EC20 current
- Assay type: cell-based
- Design: host or cells: Xenopus laevis oocytes, RNA micro-injection
- test.settings: Table 2; compound at approx. 30-fold its Ki α2β2γ1, GABA EC20, Xenopus oocytes
We use 2 as the dividing line for Fold increase h-GABA-A α2β2γ1 oocyte @ 30-fold Ki: on or above the line is Fulfilled, below is Not fulfilled.

Please review the following examples before continuing.
• Fc1ccccc1C1=NCc2nnc(-c3cccnn3)n2-c2ccc(Cl)c(Cl)c21 = Not fulfilled
• Cn1cc(-c2nnc3n2-c2ccc(C(F)(F)F)c(Cl)c2C(c2ncccc2F)=NC3)cn1 = Not fulfilled
• Fc1ccccc1C1=NCc2nnc(C3CC3)n2-c2ccc(Br)c(Cl)c21 = Not fulfilled
• Cc1nnc2n1-c1ccc(Br)c(Cl)c1C(c1c(F)cccc1F)=NC2 = Not fulfilled
• Cn1cc(-c2nnc3n2-c2ccc(Cl)c(Cl)c2C(c2c(F)cccc2F)=NC3)cn1 = Not fulfilled
• Cc1nnc2n1-c1ccc(Cl)c(Cl)c1C(c1c(F)cccc1F)=NC2 = Not fulfilled
• Fc1cccc(F)c1C1=NCc2nnc(-c3cccnn3)n2-c2ccc(Cl)c(Cl)c21 = Not fulfilled
• Cc1nnc2n1-c1ccc(Br)c(Cl)c1C(c1c(F)cccc1Cl)=NC2 = Not fulfilled
• Fc1cccc(F)c1C1=NCc2nnc(-c3cccnn3)n2-c2ccc(C(F)(F)F)c(Cl)c21 = Fulfilled
• COc1ccc2c(c1Cl)C(c1c(F)cccc1F)=NCc1nnc(-c3ccncn3)n1-2 = Not fulfilled

Turning now to a further molecule:
Entry "Fc1ccccc1C1=NCc2nncn2-c2ccc(Br)c(Cl)c21" : is its Fold increase h-GABA-A α2β2γ1 oocyte @ 30-fold Ki no less than 2?
Not fulfilled
